Measured ELISA luminescence signal at 10 nmol/L peptide, relative to SEQ ID NO: 47 (=1) accompanies every entry in the list below.
Molecular target: T1, Recombinant Human FGFR2 alpha (IIIc) Fc Chimera Protein, CF (R&D systems, 712-FR-050) (human, UniProt P21802 22-377)
T1 construct: bought; not shown: Fc part of the chimera
T1 sequence (P21802 22-377, change not shown): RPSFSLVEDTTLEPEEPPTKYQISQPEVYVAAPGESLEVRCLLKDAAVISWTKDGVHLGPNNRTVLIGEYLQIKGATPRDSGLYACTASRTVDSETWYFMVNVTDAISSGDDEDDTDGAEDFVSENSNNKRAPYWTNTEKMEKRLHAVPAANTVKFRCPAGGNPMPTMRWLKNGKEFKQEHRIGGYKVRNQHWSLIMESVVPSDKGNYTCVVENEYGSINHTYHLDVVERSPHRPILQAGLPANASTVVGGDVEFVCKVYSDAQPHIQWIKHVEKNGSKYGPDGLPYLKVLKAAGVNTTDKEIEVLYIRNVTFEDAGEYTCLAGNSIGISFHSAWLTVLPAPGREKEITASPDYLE
Assay: ELISA on plate-bound FGFR2-Fc
Protocol: First, 5 ng of Recombinant Human FGFR2 alpha (IIIc) Fc Chimera Protein (R&D systems, 712-FR-050) was immobilized in each well of a 96-well plate, and blocked with Pierce Protein-Free (PBS) Blocking Buffer (Thermo, 37572), and a peptide diluted with Can Get Signal Immunoreaction Enhancer Solution I (TOYOBO, NKB-101) was then added and reacted at room temperature for 3 hours. […]
Bridge positions count the residues as written; N and C are the ends. Ends that are not written are not given here. COCH2 = acetyl group that carries the bridge

Reference set, count: 5
{"Binder": "YCERNYLDPEQYQYFIYFK(COCH2)Y (thioether 2-19 (inferred)) [cyclic peptide SEQ ID NO: 179]", "Test Result": "≥ 0.7 ratio"}
{"Binder": "WCPQNFINPVQWRYFQHYK(COCH2)N (thioether 2-19 (inferred)) [cyclic peptide SEQ ID NO: 78]", "Test Result": "≥ 0.7 ratio"}
{"Binder": "YCEENYLDPEQYQYFIVFK(COCH2)Y (thioether 2-19 (inferred)) [cyclic peptide SEQ ID NO: 295]", "Test Result": "≥ 0.7 ratio"}
{"Binder": "QCPQNFINPVQSRYFQHYK(COCH2)N (thioether 2-19) [cyclic peptide SEQ ID NO: 105]", "Test Result": "0.1 to 0.5 ratio"}
{"Binder": "YCEENYLDPEQYQYFIGFK(COCH2)Y (thioether 2-19 (inferred)) [cyclic peptide SEQ ID NO: 291]", "Test Result": "0.5 to 0.7 ratio"}

Item under review: YCEENYLDPEQYQYFWYFK(COCH2)Y (thioether 2-19 (inferred)) [cyclic peptide SEQ ID NO: 282] . Reported ELISA luminescence signal at 10 nmol/L peptide, relative to SEQ ID NO: 47 (=1)?
≥ 0.7 ratio

Item under review: HCDGNWWNSQQFFYLLLYK(COCH2)H (thioether 2-19) [cyclic peptide SEQ ID NO: 130] . Reported ELISA luminescence signal at 10 nmol/L peptide, relative to SEQ ID NO: 47 (=1)?
≥ 0.7 ratio
